test system: 786-0 renal; experiment: NCI-60 one-dose screen, 48 h (100 = growth as untreated, 0 = no growth, -100 = all killed); conditions: 10 µM unless noted
This is part of a sample that, as a whole, favours compounds with a hit. Of some 83,000 tested, about 20% had one in any assay. The source made the active and inactive calls. The calls were made as follows: active = growth percent below 10; inactive = the rest.
Please provide measured growth for the entries that follow.

Enter reported growth observed with 786-0 renal for `NC(=S)NS(=O)(=O)c1ccc(N)cc1`
105% (inactive)

// query: `Clc1nc(Oc2ccccc2)nc(-c2cn(-c3ccccc3)c3ccccc23)n1`
101% (inactive)

// query: `N#C/C(=C/c1c(O)ccc2ccccc12)C(N)=O`
83.6% (inactive)

// query: `CCCCCCCCCCCCOc1ccccc1C=O`
109% (inactive)

// query: `O=[N+]([O-])c1ccc(-n2[nH]nnc2=S)cc1`
106% (inactive)

// query: `O=C(O)c1cc(C(=O)O)cc([N+](=O)[O-])c1`
101% (inactive)

----------
tested on: NCI-H522 lung; assay: NCI-60 one-dose screen, 48 h (100 = growth as untreated, 0 = no growth, -100 = all killed); settings: 10 µM
This is part of a sample that, as a whole, favours compounds with a hit. Of some 83,000 tested, about 20% had one in any assay.
Please provide measured growth for the entries that follow.
Provide the reading as a plain figure in %.

Look up growth: Cc1[nH]c(-c2nc3ccccc3[nH]2)c(C)c1C(=O)NC(C)C1CCCCC1 (configuration not stated)
80.9

// query: CCCCCCCCCCCCCCCc1ccc(Cl)c(O)c1Cl (tested in a mixture with another compound)
83.1

// query: `CC(C)(C)c1cc(NC(=O)Cc2ccc(-c3cnc4cc(-c5cnn(CCN6CCOCC6)c5)ccc4n3)cc2)no1`
20

// query: `CC1(C)OB(c2ccc(Cn3cc(F)c(=O)[nH]c3=O)cc2)OC1(C)C`
91

// query: `CCc1ccccc1-n1c(N)c(C#N)c(-c2ccc(OC)c(OC)c2)c(C#N)c1=O`
105

// query: `COc1ccc(Cl)cc1C(=O)NCCc1ccc(S(=O)(=O)NC(=O)NC2CCCCC2)cc1`
97

// query: `CNC(=O)c1cc(Oc2ccc(CC(=O)Nc3cc(C(C)(C)C)nn3C)cc2)ccn1`
54.9

----------
test system: HOP-92 NSCLC; test: NCI-60 one-dose screen, 48 h (100 = growth as untreated, 0 = no growth, -100 = all killed); details: 10 µM unless noted
This is part of a sample that, as a whole, favours compounds with a hit. Of some 83,000 tested, about 20% had one in any assay.
Please provide measured growth for the entries that follow.
Provide the reading as a plain figure in %.

Look up growth: `Fc1ccccc1Nc1n[nH]c(=S)s1`
100

// query: `O=C(Nc1cccc(-n2ccc3c(NC(=O)c4ccccc4)nccc32)c1)c1ccc(Cl)c(C(F)(F)F)c1`
-13.5

// query: `CN(Cc1ccccc1)Cc1ccccc1`
91.8

// query: O=C1C2=C(C(=O)c3ccccc31)C(O)(S(=O)(=O)O)C(O)(S(=O)(=O)O)C1N=CC=CC21 (stereo unspecified)
-2.69

// query: `C1CCCCNCCC1`
88.3

// query: `CCN(CC)CCOc1ccc(/C=N/Nc2nc3c([nH]2)c(=O)n(C)c(=O)n3C)cc1`
94.6

----------
Please provide measured growth for the entries that follow.
Tested on: HOP-92 NSCLC
Test: NCI-60 one-dose screen, 48 h (100 = growth as untreated, 0 = no growth, -100 = all killed)
Details: 10 µM unless noted
Protocol: Growth inhibition of the HOP-92 human Non-Small Cell Lung tumor cell line is measured as a screen for anti-cancer activity. Cells are grown in 96 well plates and exposed to the test compound for 48 hours. Compounds are tested at a single concentration, which is 10^-5 M for most compounds. The reported endpoint is percent growth (GI% or GIPRCNT), where numbers from 0 - 100% represent growth inhibition, and numbers from -100% - 0 represent cell death. […]
Compounds without any hit were thinned out: in the full panel of roughly 83,000, 20% have a hit.
Provide the reading as a plain figure in %.

Look up growth: `c1ccc(N(c2ccccc2)c2ccccc2)cc1`
112

// query: `OCc1ccccn1`
108

// query: `Cc1ccc(-c2noc(CC(=O)c3ccc([N+](=O)[O-])cc3)n2)cc1`
101

// query: `Nc1ccc2ccc(N)cc2c1`
101

// query: `O=C(CCc1ccc(O)cc1)N/N=C/c1cc(Br)ccc1O`
80.7

// query: `N/C(=N\N=C\c1ccc2c(c1)OCO2)N/N=C\c1ccc2c(c1)OCO2`
99.8

// query: `Cc1cc(O)c(C(C)C)cc1N`
100

// query: CC1=NN(c2ccccc2)C(=O)C1C(=O)c1ccccc1 (stereo not drawn)
78.4

// query: CC1(c2ccc3ccccc3c2)CCC(=O)O1 (stereo not drawn)
106

// query: CCN(CC)CCC(CNc1c2ccc([N+](=O)[O-])cc2nc2cc(OC)c(OC)cc12)c1ccccc1 (stereo not drawn)
-42.2

// query: O=C1c2c(O)cc(O)cc2OC(c2ccc(O)c(O)c2)C1O (stereo not drawn)
108

// query: Oc1ccccc1C=NCC1CCC(CN=Cc2ccccc2O)CC1 (stereo not drawn)
104

// query: `CC(=O)Nc1ccc2cc3ccc(NC(C)=O)cc3nc2c1`
60.6

----------
Please provide measured growth for the entries that follow.
system: LOX IMVI melanoma; assay: NCI-60 one-dose screen, 48 h (100 = growth as untreated, 0 = no growth, -100 = all killed); conditions: 10 µM unless noted
About 83,000 compounds went through this panel and 20% of them were active in at least one assay; those are over-represented in the sample as a whole.
Provide the reading as a plain figure in %.

Look up growth: `c1ccc(N(c2ccccc2)c2ccccc2)cc1`
94.5

// query: `CCOC(=O)c1sc(N)nc1-c1ccccc1`
95.5

// query: `NC(=S)N/N=C(\c1ccc(Br)cc1)C1CC1`
86.2

// query: `Nc1nc(SC/C=C/CCl)c2[nH]cnc2n1`
103

// query: `Cc1ccc(-c2noc(C)n2)cc1`
99.7

// query: NC(=O)c1ccccc1OCC(O)CO (configuration not stated)
104

// query: `Cc1n[nH]c(=O)n(/N=C\c2c[nH]c3ccccc23)c1=O`
99.4

// query: `Cc1nn(-c2ccccc2)nc1C(=O)Nc1ccccc1C(=O)NCC1CC1`
86.9

// query: CCC(=O)C(CC)c1cccc(OC)c1 (configuration not stated)
100

// query: `O=C1c2ccccc2C(=O)N1/N=C/c1ccc2c(c1)OCO2`
100

// query: `Nc1n[nH]c(=S)n1-c1ccc(Cl)cc1`
94.6

// query: CC(/C=N/N1C(=O)c2ccccc2C1=O)c1ccccc1 (configuration not stated)
98.3

// query: Oc1ccccc1C=NCC1CCC(CN=Cc2ccccc2O)CC1 (configuration not stated)
80.2

// query: `Cc1ccc2nc3c(nc2c1)-c1cccc2cccc-3c12`
82.6

// query: `COc1ccc(NC(=S)Nc2ccccn2)cc1`
89.8

// query: NCCSC(C[N+](=O)[O-])c1ccccc1Cl (configuration not stated)
31.4

// query: `OCc1ccccn1`
102

// query: `Cc1c(Cl)cccc1NCN1C(=O)c2ccccc2C1=O`
97

// query: CC1=NN(c2ccccc2)C(=O)C1C(=O)c1ccccc1 (configuration not stated)
96.9

// query: Cc1[nH]c(-c2nc3ccccc3[nH]2)c(C)c1C(=O)NC(C)C1CCCCC1 (configuration not stated)
84.7

// query: `O=[N+]([O-])c1ccc(/C=N\NC(=S)Nc2ccc(F)cc2)cc1`
88.9

// query: `CCCCCCCCCCCCOc1ccccc1C=O`
90.1

// query: `CCN(CC)C(=O)c1cccnc1`
100

// query: `O=C=NC(c1ccccc1)(c1ccccc1)c1ccccc1`
102

// query: `Fc1ccccc1Nc1n[nH]c(=S)s1`
128

// query: `CCCCCCCCCCCCCCCCOc1ccc(C)cc1`
87.3

// query: `COc1ccc2ccccc2c1/C=N/N1CCCCC1`
93

----------
Please provide measured growth for the entries that follow.
tested on: EKVX NSCLC; experiment: NCI-60 one-dose screen, 48 h (100 = growth as untreated, 0 = no growth, -100 = all killed); details: 10 µM unless noted
Compounds without any hit were thinned out: in the full panel of roughly 83,000, 20% have a hit.
Provide the reading as a plain figure in %.

Look up growth: `O=C=NC(c1ccccc1)(c1ccccc1)c1ccccc1`
111

// query: CCC(=O)C(CC)c1cccc(OC)c1 (stereo not given)
106

// query: `O=C(CCc1ccc(O)cc1)N/N=C/c1cc(Br)ccc1O`
91

// query: O=S1(=O)CC(Br)C(Br)C1 (stereo not given)
93.9

// query: `COc1ccc(NC(=S)Nc2ccccn2)cc1`
96.5

// query: CC(O)Cn1cnc2c1c(=O)n(C)c(=O)n2C (stereo not given)
100

// query: `CN(Cc1ccccc1)Cc1ccccc1`
102

// query: CC1CCCC(=O)O1 (stereo not given)
102

// query: `O=C(Cc1cccc2ccccc12)N/N=C/c1ccc2c(c1)CCC2`
78.8

// query: `c1ccc(NCc2ccc3c(c2)OCO3)cc1`
107

Hey, just so you know, these numbers are from PubChem BioAssay (NCI).
